Let's look at some compounds and their measured pest or weed control at 50 µg/cm2.
- System: Cabbage Looper (Trichoplusia ni, TRIPNI)
- ASSAY_DETAILS: Bioassay on Cabbage Looper (CL), 128-well diet tray assay
- Assay type: in vivo
- STATED_CONDITIONS: Trichoplusia ni; Cabbage Looper, 128-well diet tray assay; read-out: CL rating

For orientation, consider the following solved cases.
Problem: Hi! What's the reported pest or weed control at 50 µg/cm2 for O=C(Nc1ccc2sccc2c1)c1cc(NC(=O)[C@H]2[C@H](c3cc(Cl)cc(Cl)c3)C2(Cl)Cl)ccc1Cl (relative stereo) on Cabbage Looper (Trichoplusia ni, TRIPNI)?
Result: 50 to 100%

Problem: Hi! What's the reported pest or weed control at 50 µg/cm2 for C=C(F)c1cc([C@H]2[C@H](C(=O)Nc3ccc(Cl)c(C(=O)Nc4ccc(F)cc4)c3)C2(Cl)Cl)ccc1Cl (relative stereo) on Cabbage Looper (Trichoplusia ni, TRIPNI)?
Result: 50 to 100%

More entries:
Problem: Hi! What's the reported pest or weed control at 50 µg/cm2 for CN1CCCc2cc(NC(=O)c3cc(NC(=O)[C@H]4[C@H](c5cc(Cl)cc(Cl)c5)C4(Cl)Cl)ccc3Cl)ccc21 (relative stereo) on Cabbage Looper (Trichoplusia ni, TRIPNI)?
Result: 50 to 100%

---

- Tested on: Cabbage Looper (Trichoplusia ni, TRIPNI)
- ASSAY_DETAILS: Bioassay on Cabbage Looper (CL), 128-well diet tray assay
- Format: in vivo
- STATED_CONDITIONS: Trichoplusia ni; Cabbage Looper, 128-well diet tray assay; read-out: CL rating
VALUE_KIND: pest or weed control at 50 µg/cm2

For orientation, consider the following solved cases.
Problem: Hi! What's the reported pest or weed control at 50 µg/cm2 for CN(C(=O)C(F)(F)F)c1ccc(NC(=O)c2cc(NC(=O)[C@H]3[C@H](c4cc(Cl)cc(Cl)c4)C3(Cl)Cl)ccc2Cl)cc1 (relative stereo) [PF29] on Cabbage Looper (Trichoplusia ni, TRIPNI)?
Result: 50 to 100%

Problem: Hi! What's the reported pest or weed control at 50 µg/cm2 for O=C(Nc1ccc2c(c1)CCN2)c1cc(NC(=O)[C@H]2[C@H](c3cc(Cl)cc(Cl)c3)C2(Cl)Cl)ccc1Cl (relative stereo) [F511] on Cabbage Looper (Trichoplusia ni, TRIPNI)?
Result: 50 to 100%

Problem: Hi! What's the reported pest or weed control at 50 µg/cm2 for O=C(Nc1ccc(S(=O)(=O)CC(F)(F)F)cc1)c1cc(NC(=O)[C@H]2[C@H](c3cc(Cl)cc(Cl)c3)C2(Cl)Cl)ccc1Cl (relative stereo) [PF17] on Cabbage Looper (Trichoplusia ni, TRIPNI)?
Result: 50 to 100%

More entries:
Problem: Hi! What's the reported pest or weed control at 50 µg/cm2 for O=C(Nc1ccc(F)cc1)c1cc(NC(=O)[C@H]2[C@H](c3cc(Cl)cc(Br)c3)C2(Cl)Cl)ccc1Cl (relative stereo) [PF37] on Cabbage Looper (Trichoplusia ni, TRIPNI)?
Result: 50 to 100%

Problem: Hi! What's the reported pest or weed control at 50 µg/cm2 for Nc1cc(F)cc(NC(=O)c2cc(NC(=O)[C@H]3[C@H](c4ccc(F)c(Cl)c4)C3(Cl)Cl)ccc2Cl)c1 [F433] on Cabbage Looper (Trichoplusia ni, TRIPNI)?
Result: 50 to 100%

Problem: Hi! What's the reported pest or weed control at 50 µg/cm2 for O=C(Nc1ccc(F)cc1[N+](=O)[O-])c1cc(NC(=O)[C@H]2[C@H](c3ccc(Cl)c(Cl)c3)C2(Cl)Cl)ccc1Cl [F555] on Cabbage Looper (Trichoplusia ni, TRIPNI)?
Result: 50 to 100%
